Data provenance: patent US11596639B2

Biological target: Mcl-1 (Homo sapiens (Human), UniProt Q07820)
Sequence (Q07820 172-327): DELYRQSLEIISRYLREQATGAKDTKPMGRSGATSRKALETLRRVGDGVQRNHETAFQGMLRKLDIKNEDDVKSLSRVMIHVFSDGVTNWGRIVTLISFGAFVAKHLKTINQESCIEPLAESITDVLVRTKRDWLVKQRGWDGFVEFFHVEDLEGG
Test: Fluorescence polarization anisotropy (FPA) competition assay, FITC-Bak or FITC-Bim BH3 peptide
Format: binding
Details: read-out: Ki for Inhibition of Mcl-1 by FPA assay
Consider the following compounds; for each one, report its Ki.
Express your answer in nM, writing the number without its unit.

Task item: Entry Cc1cc(OCCCc2c3n(c4c(-c5c(C)nn(C)c5C)c(Cl)ccc24)[C@H](C)CN(c2cn(C)c4c(C#N)cccc24)C3=O)cc(C)c1Cl [Example 209] has what Ki?
Reply: 1.2

Task item: Try Cc1cc(OCCCc2c3n(c4c(-c5c(C)nn(C)c5C)c(Cl)ccc24)CCCN(c2cccc4c(C#N)cn(C)c24)C3=O)cc(C)c1Cl [Example 6] next.
Reply: 54

Task item: Follow-up entry: Cc1cc(CCCCc2c(C(=O)N3CCN(c4ccnc(C(=O)O)c4)CC3)[nH]c3c(-c4c(C)nn(C)c4C)c(Cl)ccc23)cc(C)c1Cl [Example 738]
Reply: 200

Task item: Would you kindly repeat that for Cc1cc(OCCCc2c3n(c4c(-c5c(C)nn(C)c5C)c(Cl)ccc24)CCCN(c2ccc4c(C(=O)O)cn(C)c4c2)C3=O)cc(C)c1Cl [Example 81] ?
Reply: 2.4

Task item: What do you have for Cc1cc(OCCCc2c3n(c4c(-c5c(C)nn(C)c5C)c(Cl)ccc24)[C@H](C)CN(c2cn(COCC[Si](C)(C)C)c4ccc(C(=O)O)cc24)C3=O)cc(C)c1Cl [Example 231] ?
Reply: 1.2

Task item: Next up: CC(=O)N1CCN(S(=O)(=O)c2ccc3c(c2)c(N2C[C@@H](C)n4c(c(CCCOc5cc(C)c(Cl)c(C)c5)c5ccc(Cl)c(-c6c(C)nn(C)c6C)c54)C2=O)cn3C)CC1 [Example 278]
Reply: 5.4

###

Tested on: H929 human cancer cell lines
Assay: Cellular viability / proliferation (Cell TiterGlo, 72 h)
Format: cell-based
Conditions: Homo sapiens, NCI-H929, 72 h, read-out: GI50 on cellular proliferation of H929 human cancer cell lines, H929 cells, 72 h, Cell TiterGlo, 10% FBS
outcomeMeasure: GI50 (nM)
Form entry: value (nM) — number only.

Task item: Bench note: what GI50 did Cc1cc(OCCCc2c3n(c4c(-c5c(C)nc(CN6CCOCC6)nc5C)c(Cl)ccc24)[C@H](C)CN(c2cn(C)c4ccc(C(=O)O)cc24)C3=O)cc(C)c1Cl show?
Reply: 200

Task item: Same lookup for Cc1cc(OCCCc2c3n(c4c(-c5c(C)ncnc5C)c(Cl)ccc24)CCCN(c2cccc4c(C(=O)O)cn(C)c24)C3=O)cc(C)c1Cl , please.
Reply: 2900

Task item: Now the compound Cc1cc(N2C[C@@H](C)n3c(c(CCCOc4cc(C)c(Cl)c(C)c4)c4ccc(Cl)c(-c5c(C)nn(C)c5C)c43)C2=O)c2c(c1)cc(C(=O)O)n2Cc1cccc(N2CCOCC2)n1
Reply: 740

Task item: Please answer likewise for Cc1cnc(-n2cnc(-c3ccc4c(c3)c(N3C[C@@H](C)n5c(c(CCCOc6cc(C)c(Cl)c(C)c6)c6ccc(Cl)c(-c7c(C)nn(C)c7C)c65)C3=O)cn4C)n2)nc1
Reply: 380

Task item: Now consider Cc1cc(OCCCc2c3n(c4c(-c5c(C)nn(C)c5C)c(Cl)ccc24)CCCN(c2cc(C(=O)O)cc4c2cnn4C)C3=O)cc(C)c1Cl .
Reply: 3800

Task item: Another compound to check: Cc1ccc(Cn2cc(C(=O)O)c3cccc(N4C[C@@H](C)n5c(c(CCCOc6cc(C)c(Cl)c(C)c6)c6ccc(Cl)c(-c7c(C)nn(C)c7C)c65)C4=O)c32)nc1 (single isomer, unassigned)
Reply: 1200

Task item: Request: COc1cc(N2C[C@@H](C)n3c(c(CCCOc4cc(C)c(Cl)c(C)c4)c4ccc(Cl)c(-c5c(C)nn(C)c5C)c43)C2=O)c2c(c1)c(C(=O)O)cn2C
Reply: 510

Task item: Then what about the compound Cc1cc(OCCCc2c3n(c4c(-c5c(C)nn(C)c5C)c(Cl)ccc24)[C@H](C)CN(c2cn(C)c4ccc(-n5ccnn5)nc24)C3=O)cc(C)c1Cl ?
Reply: 930

Task item: COCCn1cc(N2C[C@@H](C)n3c(c(CCCOc4cc(C)c(Cl)c(C)c4)c4ccc(Cl)c(-c5c(C)nn(C)c5C)c43)C2=O)c2cc(C(=O)O)ccc21 ?
Reply: 410

Task item: Proceed to Cc1cc(OCCCc2c3n(c4c(-c5c(C)nn(C)c5C)c(Cl)ccc24)[C@H](C)CN(c2cn(C)c4ccc(-c5nc(C)n(C)n5)cc24)C3=O)cc(C)c1Cl
Reply: 340

Task item: Another: Cc1cc(OCCCc2c3n(c4c(-c5c(C)nn(C)c5C)c(Cl)ccc24)[C@H](C)CN(c2cccc4cc(C(=O)O)n(Cc5ncccn5)c24)C3=O)cc(C)c1Cl
Reply: 1100

Task item: Thanks! And Cc1cc(OCCCc2c3n(c4c(-c5c(C)nn(C)c5C)c(Cl)ccc24)[C@H](C)CN(c2cc(CO)cc4c(C(=O)O)cn(C)c24)C3=O)cc(C)c1Cl ?
Reply: 1300

Task item: Here is the next compound: Cc1cc(OCCCc2c3n(c4c(-c5c(C)nn(C)c5C)c(Cl)ccc24)[C@H](C)CN(c2cc(OCCOC(C)C)cc4c(C(=O)O)cn(Cc5ccccn5)c24)C3=O)cc(C)c1Cl
Reply: 600

Task item: Now this one: COc1cnc(-c2ccc3c(c2)c(N2C[C@@H](C)n4c(c(CCCOc5cc(C)c(Cl)c(C)c5)c5ccc(Cl)c(-c6c(C)nn(C)c6C)c54)C2=O)cn3C)nc1
Reply: 690

Task item: Also check Cc1cccc(Cn2cc(C(=O)O)c3cccc(N4C[C@@H](C)n5c(c(CCCOc6cc(C)c(Cl)c(C)c6)c6ccc(Cl)c(-c7c(C)nn(C)c7C)c65)C4=O)c32)n1 (single isomer, unassigned)
Reply: 280

Task item: Param item: COc1ccc(N2C[C@@H](C)n3c(c(CCCOc4cc(C)c(Cl)c(C)c4)c4ccc(Cl)c(-c5c(C)n[nH]c5C)c43)C2=O)c2c1cc(C(=O)O)n2Cc1ccccn1
Reply: 330

Task item: Also Cc1cc(OCCCc2c3n(c4c(-c5c(C)nn(CC6CCN(C)C6)c5C)c(Cl)ccc24)[C@H](C)CN(c2cn(C)c4ccc(C(=O)O)cc24)C3=O)cc(C)c1Cl (stereo partly drawn) , if possible.
Reply: 530

Task item: How about Cc1cc(OCCCc2c3n(c4c(-c5c(C)nn(C)c5C)c(Cl)ccc24)[C@H](C)CN(c2cn(C)c4ccc(C(=O)Nc5ccccn5)cc24)C3=O)cc(C)c1Cl ?
Reply: 2200

Task item: Can you handle Cc1cc(OCCCc2c3n(c4c(-c5c(C)nn(C)c5C)c(Cl)ccc24)[C@H](C)CN(c2cccc4cc(C(=O)O)n(Cc5ccncc5)c24)C3=O)cc(C)c1Cl next?
Reply: 570
